# pIC50 per entry
assayed system: 1-deoxy-D-xylulose 5-phosphate reductoisomerase (Escherichia coli K-12, UniProt P45568)
Sequence (P45568 whole entry): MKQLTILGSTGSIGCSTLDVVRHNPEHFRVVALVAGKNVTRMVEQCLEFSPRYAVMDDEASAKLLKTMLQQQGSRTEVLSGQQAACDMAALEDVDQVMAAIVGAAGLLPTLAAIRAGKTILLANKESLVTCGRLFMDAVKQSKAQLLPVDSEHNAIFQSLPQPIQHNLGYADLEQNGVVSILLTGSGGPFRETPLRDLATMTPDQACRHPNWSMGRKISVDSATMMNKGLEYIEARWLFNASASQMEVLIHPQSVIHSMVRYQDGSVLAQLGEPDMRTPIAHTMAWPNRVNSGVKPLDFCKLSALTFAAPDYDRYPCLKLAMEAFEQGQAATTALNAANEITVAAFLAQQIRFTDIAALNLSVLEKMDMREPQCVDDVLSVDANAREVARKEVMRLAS
test summary: Inhibition of recombinant Escherichia coli DXR
Note on units: pIC50 is unitless, being -log10 of a concentration expressed in mol/L.

COc1ccc(C(CCN(O)C=O)P(=O)(O)O)cc1 (configuration not stated)	6.81
CC(=O)N(O)CCCP(=O)(O)O [FR-900098]	7.52
CC(=O)N(O)CCC(c1ccc(C)cc1)P(=O)(O)O (configuration not stated)	6.40
CC(=O)N(O)CCC(c1ccc(Cl)c(Cl)c1)P(=O)(O)O (configuration not stated)	6.92
CC(=O)N(O)CCC(c1ccc(Cl)cc1)P(=O)(O)O (configuration not stated)	7.00
COc1ccc(C(CCN(O)C(C)=O)P(=O)(O)O)cc1 (configuration not stated)	6.34

Turning now to a further molecule:
Give its pIC50 value. Item: O=CN(O)CCC(c1ccc(Cl)c(Cl)c1)P(=O)(O)O (configuration not stated)
7.23

// data source = ChEMBL document CHEMBL1146140
